MEASUREMENT_CONDITIONS: 313 K; 101.3 kPa; Liquid; Vibrating tube method
QUANTITY: mass density (kg/m3)

- COMPOUND: "COS(=O)(=O)[O-].Cn1cc[n+](C)c1 [1,3-dimethylimidazolium methylsulfate]"
  QUANTITY: "mass density"
  UNIT_LABEL: "kg/m3"
  ENDPOINT_VALUE: 1315
- COMPOUND: "CCCCO"
  QUANTITY: "mass density"
  UNIT_LABEL: "kg/m3"
  ENDPOINT_VALUE: 794
- COMPOUND: "CCCCCO"
  QUANTITY: "mass density"
  UNIT_LABEL: "kg/m3"
  ENDPOINT_VALUE: 800

I: CCCO
II: CCn1cc[n+](C)c1.COS(=O)(=O)[O-] [1-ethyl-3-methylimidazolium methylsulfate]
Q. Param pair: I , II . Output: the one whose mass density is numerically greater. Indicate which entry you chose by stating its label.
A. II
(II: 1282 kg/m3, I: 789 kg/m3)
